system: MOLT-4 leukemia; experiment: NCI tumour cell line growth inhibition, 384-well format; in the data active means GI50 below about 0.43 µM; inactive means the rest
Assign a class; possible classes are active, inactive

# smiles, tested-system, classification
measured = [
    ("CO[C@@]12[C@H](COC(N)=O)C3=C(C(=O)C(C)=C(N)C3=O)N1C[C@@H]1N[C@@H]12", "MOLT-4 leukemia", "active"),
    ("COc1ccc(-c2cc3nccn3c(Nc3ncccc3C(N)=O)n2)cc1OC", "MOLT-4 leukemia", "inactive"),
    ("CO[C@H]1/C=C/C[C@H](C)[C@@H](C)S(=O)(=O)NC(=O)c2ccc3c(c2)N(C[C@@H]2CC[C@H]21)C[C@@]1(CCCc2cc(Cl)ccc21)CO3", "MOLT-4 leukemia", "active"),
]

Kindly consider the entry below.
Query: Recorded test outcome, item O=c1[nH]cc(F)c(=O)[nH]1
Response: inactive
